- Protocol Details: Log D pH 7.4 measurement (n-octanol/PBS)
- Type: physicochemical
- Measurement Conditions: n-octanol/PBS pH 7.4
- Protocol: The samples were vortexed for 20 min and centrifuged at 6000 rpm for 5 min. Aliquots (0.1 mL) were subsequently removed from both the aqueous and the organic n-octanol layers and counted separately in a γ counter (Wallac Wizard 1470 automatic γ counter). […] The partition coefficients were then calculated using the equation D=(activity concentration in n-octanol)/(activity concentration in aqueous layer).
Property: logD; scope: individual molecules
Quick one: just the number, no unit, thanks!

>>> print(df.to_string())
                         molecule  result_number
0  O=C(O)Cn1cc(I)nn1 [^123I-TAAG]          -2.58

Lab note: next molecule to report on.
Report logD, nothing else, for this molecule: O=C(O)CC[C@H](NC(=O)N[C@@H](CCCCNC(=O)Cn1cc(I)nn1)C(=O)O)C(=O)O [^123I-TAAG-PSMA]
-3.23
